The reported numbers originate from patent US8883833B2.

# tested target: h4B1 (Homo sapiens)
# Sequence (Q07343 whole entry): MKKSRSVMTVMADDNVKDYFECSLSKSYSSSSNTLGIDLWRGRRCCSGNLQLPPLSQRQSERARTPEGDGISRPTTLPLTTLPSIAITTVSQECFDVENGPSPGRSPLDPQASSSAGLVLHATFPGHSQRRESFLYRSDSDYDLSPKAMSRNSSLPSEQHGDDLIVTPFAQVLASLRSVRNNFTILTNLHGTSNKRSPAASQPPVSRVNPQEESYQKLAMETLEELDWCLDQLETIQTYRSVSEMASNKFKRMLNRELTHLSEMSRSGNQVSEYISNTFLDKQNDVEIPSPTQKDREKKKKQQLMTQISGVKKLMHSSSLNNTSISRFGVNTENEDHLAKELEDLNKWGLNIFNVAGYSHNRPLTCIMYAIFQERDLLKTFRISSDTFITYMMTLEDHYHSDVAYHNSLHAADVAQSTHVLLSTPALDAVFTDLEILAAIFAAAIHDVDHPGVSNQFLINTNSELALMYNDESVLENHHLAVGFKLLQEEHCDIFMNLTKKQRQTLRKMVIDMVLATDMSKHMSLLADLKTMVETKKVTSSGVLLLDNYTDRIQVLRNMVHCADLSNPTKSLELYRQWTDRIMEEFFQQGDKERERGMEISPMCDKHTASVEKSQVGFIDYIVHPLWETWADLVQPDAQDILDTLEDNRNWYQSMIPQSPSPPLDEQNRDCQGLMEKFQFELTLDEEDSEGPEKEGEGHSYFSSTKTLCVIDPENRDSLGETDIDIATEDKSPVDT
test readout: IC50

CCOC(=O)NC1CCN(Cc2cc3scnc3c(-c3cccc(Cl)c3)c2F)CC1; 1 to 10 µM
Nc1nc2c(-c3cccc(C(F)(F)F)c3)cc(Cc3ccc(F)cc3)cc2s1; 1 to 10 µM
CCNC(=O)Nc1ccc(Cc2cc3scnc3c(-c3cccc(Cl)c3)c2F)cc1; < 1 µM

// fetch h4B1 (Homo sapiens) IC50 for CC(=O)N1CCN(Cc2cc3scnc3c(-c3cccc(Cl)c3)c2F)CC1 10 to 20 µM

// fetch h4B1 (Homo sapiens) IC50 for CCNC(=O)Nc1ccc(Cc2cc3scnc3c(-c3cccc(Cl)c3)c2F)cn1 < 1 µM

// fetch h4B1 (Homo sapiens) IC50 for Cn1nccc1C(O)c1cc(-c2ccc3c(c2)OCO3)c2nc(N)sc2c1 (stereo not drawn) 10 to 20 µM

// fetch h4B1 (Homo sapiens) IC50 for Nc1nc2c(-c3cccc(Br)c3)cc(Cc3ccc(F)cc3)cc2s1 1 to 10 µM
